Ref: patent US10065990B2

Listed here: items and their measured GI50.
System: Huh-7 (human hepatoma cells)
Experiment Summary: MTT cancer cell growth inhibition
Assay type: cell-based
Measurement Conditions: Homo sapiens, Huh-7, 72 h, MTT, 72 hours incubation, Huh-7 cells; read-out: GI50 Huh-7
Assay Readout: GI50 (nM)

Structure: C/C=C1\NC(=O)c2ccc(F)c(n2)CNC(=O)C[C@@H](/C=C/CCS)OC(=O)[C@H](Cc2cccc3ccccc23)NC1=O
Quantitative Readout: 51
//
Structure: C/C=C1\NC(=O)c2cc(F)cc(n2)CNC(=O)C[C@@H](/C=C/CCSC(=O)CCCCCCC)OC(=O)[C@H](C)NC1=O
Quantitative Readout: 38
//
Structure: C/C=C1\NC(=O)c2ccc(F)c(n2)CNC(=O)C[C@@H](/C=C/CCSC(C)=O)OC(=O)[C@H](Cc2ccc(O)cc2)NC1=O
Quantitative Readout: 37
//
Structure: C/C=C1\NC(=O)c2cc(F)cc(n2)CNC(=O)C[C@@H](/C=C/CCSC(C)=O)OC(=O)[C@H](Cc2ccc(O)cc2)NC1=O
Quantitative Readout: 29
//
Structure: C/C=C1\NC(=O)c2cccc(n2)CNC(=O)C[C@@H](/C=C/CCSC(=O)CCCCCCC)OC(=O)[C@H](CC)NC1=O
Quantitative Readout: 53
//
Structure: C/C=C1\NC(=O)c2cccc(n2)CNC(=O)C[C@@H](/C=C/CCSC(C)=O)OC(=O)[C@H](CCCCNC(=O)OCC2c3ccccc3-c3ccccc32)NC1=O
Quantitative Readout: 43
//
Structure: C/C=C1\NC(=O)c2nc(ccc2SCCC)CNC(=O)C[C@@H](/C=C/CCSC(=O)CCCCCCC)OC(=O)[C@H](CC)NC1=O
Quantitative Readout: 11
//
Structure: CSc1cc2nc(c1)C(=O)NC(=C(C)C)C(=O)N[C@@H](C(C)C)C(=O)O[C@H](/C=C/CCSC(C)=O)CC(=O)NC2
Quantitative Readout: 26
//
Structure: CC(C)=C1NC(=O)c2cccc(n2)CNC(=O)C[C@@H](/C=C/CCS)OC(=O)[C@H](C(C)C)NC1=O
Quantitative Readout: 87
//
Structure: C/C=C1\NC(=O)c2cc(F)cc(n2)CNC(=O)C[C@@H](/C=C/CCSC(=O)CC)OC(=O)[C@H](C(C)C)NC1=O
Quantitative Readout: 35
//
Structure: C/C=C1\NC(=O)c2cccc(n2)CNC(=O)C[C@@H](/C=C/CCSC(=O)CCCC)OC(=O)[C@H](C(C)C)NC1=O
Quantitative Readout: 86
//
Structure: C/C=C1\NC(=O)c2cccc(n2)CNC(=O)C[C@@H](/C=C/CCSC(=O)CCCCCCC)OC(=O)[C@H](CC(C)C)NC1=O
Quantitative Readout: 64
//
Structure: C/C=C1\NC(=O)c2cccc(n2)CNC(=O)C[C@@H](/C=C/CCSC(C)=O)OC(=O)[C@H](C)NC1=O
Quantitative Readout: 86

* * *

Test system: BGC-823 (human gastric cancer cells)
Experiment Summary: MTT cancer cell growth inhibition
Type: cell-based
Measurement Conditions: Homo sapiens, BGC-823, 72 h, BGC-823 cells, MTT, 72 hours incubation; read-out: GI50 BG
With a cut-off of 80 nM, any GI50 strictly below it is called T; any GI50 meeting it or above is called F.

Structure: C/C=C1\NC(=O)c2cc(SC)cc(n2)CNC(=O)C[C@@H](/C=C/CCSC(C)=O)OC(=O)[C@H](CC)NC1=O
Subject Of Test: BGC-823 (human gastric cancer cells)
Category Label: T

Structure: C/C=C1\NC(=O)c2nc(ccc2SC)CNC(=O)C[C@@H](/C=C/CCS)OC(=O)[C@H](CC)NC1=O
Subject Of Test: BGC-823 (human gastric cancer cells)
Category Label: F

Structure: C/C=C1\NC(=O)c2ccc(SC)c(n2)CNC(=O)C[C@@H](/C=C/CCSC(=O)CC)OC(=O)[C@H](C(C)C)NC1=O
Subject Of Test: BGC-823 (human gastric cancer cells)
Category Label: F

Structure: C/C=C1\NC(=O)c2cc(SC)cc(n2)CNC(=O)C[C@@H](/C=C/CCSC(C)=O)OC(=O)[C@@H](C)NC1=O
Subject Of Test: BGC-823 (human gastric cancer cells)
Category Label: T

Structure: C/C=C1\NC(=O)c2nc(ccc2SC)CNC(=O)C[C@@H](/C=C/CCSC(C)=O)OC(=O)[C@H](Cc2cccc3ccccc23)NC1=O
Subject Of Test: BGC-823 (human gastric cancer cells)
Category Label: T
